System: Human immunodeficiency virus 1
Experiment: Antiviral activity against NNRTI-resistant HIV-1 RES056 harboring RT K103N/Y181C mutant infected in human MT4 cells assessed as protection against virus-induced cytopathogenicity after 5 days by MTT assay
Assay type: functional, organism-based
Details: Human immunodeficiency virus 1, RES056, MT4, 120 h
Values of EC50 strictly less than 30 nM map to Yes, and values of at least 30 nM map to No.

Cc1cc(/C=C/C#N)cc(C)c1Oc1nc(NC2CCN(Cc3ccc(C(N)=O)cc3)CC2)ncc1-c1ccnc(Cl)c1; No

Lab note: next molecule to report on.
# strict comparison: is reported EC50 < 30 nM? input = Cc1cc(/C=C/C#N)cc(C)c1Oc1nc(NC2CCN(Cc3ccc(S(C)(=O)=O)cc3)CC2)ncc1-c1ccnc(F)c1
Yes

---

System: Human immunodeficiency virus 1
Test: Antiviral activity against NNRTI-resistant HIV-1 RES056 harboring RT K103N/Y181C mutant infected in human MT4 cells assessed as protection against virus-induced cytopathogenicity after 5 days by MTT assay
Type: functional, organism-based
Details: Human immunodeficiency virus 1, RES056, MT4, 120 h
For each of the compounds below, state its pEC50.
Numbers only, as −log10 of the molar value.

A selection of reference data follows.
COc1cc(-c2cnc(NC3CCN(Cc4ccc(C(N)=O)cc4)CC3)nc2Oc2c(C)cc(/C=C/C#N)cc2C)ccn1; 7.39
COc1cc(-c2cnc(NC3CCN(Cc4ccc(S(C)(=O)=O)cc4)CC3)nc2Oc2c(C)cc(/C=C/C#N)cc2C)ccn1; 7.52
Cc1cc(C#N)cc(C)c1Oc1nc(NC2CCN(Cc3ccc(C(N)=O)cc3)CC2)ncc1-c1ccsc1; 6.38
Cc1cc(/C=C/C#N)cc(C)c1Oc1nc(NC2CCN(Cc3ccc(S(N)(=O)=O)cc3)CC2)ncc1-c1ccncc1; 7.64
Cc1cc(/C=C/C#N)cc(C)c1Oc1nc(NC2CCN(Cc3ccc(S(N)(=O)=O)cc3)CC2)ncc1-c1ccnc(F)c1; 7.41

For each entry beneath this line, provide reported pEC50.
1. Cc1cc(/C=C/C#N)cc(C)c1Oc1nc(NC2CCN(Cc3ccc(C(N)=O)cc3)CC2)ncc1-c1ccnc(Br)c1
2. Cc1cc(C#N)cc(C)c1Oc1nc(NC2CCN(Cc3ccc(C(N)=O)cc3)CC2)ncc1-c1ccco1
3. Cc1cc(C#N)cc(C)c1Oc1nc(NC2CCN(Cc3ccc(S(N)(=O)=O)cc3)CC2)ncc1-c1cccs1

1: 7.49; 2: 6.60; 3: 6.99

---

System: Human immunodeficiency virus 1
Assay: Antiviral activity against NNRTI-resistant HIV-1 RES056 harboring RT K103N/Y181C mutant infected in human MT4 cells assessed as protection against virus-induced cytopathogenicity after 5 days by MTT assay
Format: functional, organism-based
Settings: Human immunodeficiency virus 1, RES056, MT4, 120 h
For each of the molecules below, state its pEC50.
Answers are plain numbers, as −log10 of the molar value.

A selection of reference data follows.
Cc1cc(C#N)cc(C)c1Oc1nc(NC2CCN(Cc3ccc(S(N)(=O)=O)cc3)CC2)ncc1-c1ccccc1; 6.37
Cc1cc(C#N)cc(C)c1Oc1nc(NC2CCN(Cc3ccc(S(C)(=O)=O)cc3)CC2)ncc1-c1ccco1; 6.63
Cc1cc(/C=C/C#N)cc(C)c1Oc1nc(NC2CCN(Cc3ccc(S(N)(=O)=O)cc3)CC2)ncc1-c1cccnc1; 7.59
COc1cc(-c2cnc(NC3CCN(Cc4ccc(S(N)(=O)=O)cc4)CC3)nc2Oc2c(C)cc(/C=C/C#N)cc2C)ccn1; 7.46

Query molecule follows.
# get_value(readout='pEC50', item= Cc1cc(/C=C/C#N)cc(C)c1Oc1nc(NC2CCN(Cc3ccc(S(C)(=O)=O)cc3)CC2)ncc1-c1ccncc1 )
7.58

Hello, the source for this data is ChEMBL document CHEMBL4834412, in case you need it.
